This listing pairs substances with measured PI.
# System: TRFP primed T cell cultures
# experimentDescription: T cell proliferation assay (tritiated thymidine incorporation) of TRFP-primed T cells restimulated with allergens or peptides
# Assay type: cell-based, human
# conditionInfo: Chain #1 TRFP peptides; cat allergic patients; average SI of all responding patients multiplied by percent of patients with a positive response
Lab note: write the figure by itself, no unit.

Fel 14-2: TRFP chain 1 peptide, amino acids 29 - 42 (KALPVVLENARILK; UniProt P30438 51-64, looked up, fragment)	336

Query: Fill in: PI of Fel 30-8: TRFP chain 1 peptide, amino acids 28 - 55 (YKALPVVLENARILKNCVDAKMTEEDKE; UniProt P30438 50-77, looked up, fragment) is ___
Reply: 262

Query: Try this substance too: Fel 30-7: TRFP chain 1 peptide, amino acids 26 - 55 (AQYKALPVVLENARILKNCVDAKMTEEDKE; UniProt P30438 48-77, looked up, fragment)
Reply: 339

###

# Tested on: TRFP primed T cell cultures
# experimentDescription: T cell proliferation assay (tritiated thymidine incorporation) of TRFP-primed T cells restimulated with allergens or peptides
# Type: cell-based, human
# conditionInfo: Chain #2 TRFP peptides; cat allergic patients; average of responding patients
The reader will find reported SI values listed item by item below.
The reply should be a number, written without any unit.

Example entries begin here.
Fel 17: TRFP chain 2 peptide, amino acids 12 - 33 (DVFFAVANGNELLLDLSLTKVN; UniProt P30440 29-50, looked up, fragment)	6.1
Fel 31-7: TRFP chain 2 peptide, amino acids 15 - 36 (FAVANGNELLLDLSLTKVNATE; UniProt P30440 32-53, looked up, fragment)	5.8
Fel 32-2: TRFP chain 2 peptide, amino acids 14 - 24 (FFAVANGNELL; UniProt P30440 31-41, looked up, fragment)	5.3
Fel 31-4: TRFP chain 2 peptide, amino acids 14 - 37 (FFAVANGNELLLDLSLTKVNATEP; UniProt P30440 31-54, looked up, fragment)	8.4

Query: Checklist item: SI tested on TRFP primed T cell cultures, entry Fel 31-5: TRFP chain 2 peptide, amino acids 14 - 36 (FFAVANGNELLLDLSLTKVNATE; UniProt P30440 31-53, looked up, fragment) , value?
Reply: 7.6

###

# Tested on: TRFP primed T cell cultures
# experimentDescription: T cell proliferation assay (tritiated thymidine incorporation) of TRFP-primed T cells restimulated with allergens or peptides
# Type: cell-based, human
# conditionInfo: Chain #1 TRFP peptides; cat allergic patients; average SI of all responding patients multiplied by percent of patients with a positive response
observationType: PI
Just the number, please, no unit after it.

Known results for substances:
Fel 3-11: TRFP chain 1 peptide, amino acids 18 - 30 (PDEYVEQVAQYKA; UniProt P30438 40-52, looked up, fragment)	863
Fel 14-1: TRFP chain 1 peptide, amino acids 23 - 36 (EQVAQYKALPVVLE; UniProt P30438 45-58, looked up, fragment)	871
Fel 8-3: TRFP chain 1 peptide, amino acids 7 - 33 (KRDVDLFLTGTPDEYVEQVAQYKALPV; UniProt P30438 29-55, looked up, fragment)	1437
Fel 8-2: TRFP chain 1 peptide, amino acids 6 - 33 (VKRDVDLFLTGTPDEYVEQVAQYKALPV; UniProt P30438 28-55, looked up, fragment)	1353

Here is the next item to consider.
Query: Using the record for Fel 15: TRFP chain 1 peptide, amino acids 44 - 60 (CVDAKMTEEDKENALSV; UniProt P30438 66-82, looked up, fragment) , report its PI.
Reply: 440
